target: CYP1A2 (Homo sapiens, UniProt P05177); experiment: Inhibition of human CYP1A2 in human liver microsomes at 10 uM relative to control; assay type: ADME
Sequence (P05177 whole entry): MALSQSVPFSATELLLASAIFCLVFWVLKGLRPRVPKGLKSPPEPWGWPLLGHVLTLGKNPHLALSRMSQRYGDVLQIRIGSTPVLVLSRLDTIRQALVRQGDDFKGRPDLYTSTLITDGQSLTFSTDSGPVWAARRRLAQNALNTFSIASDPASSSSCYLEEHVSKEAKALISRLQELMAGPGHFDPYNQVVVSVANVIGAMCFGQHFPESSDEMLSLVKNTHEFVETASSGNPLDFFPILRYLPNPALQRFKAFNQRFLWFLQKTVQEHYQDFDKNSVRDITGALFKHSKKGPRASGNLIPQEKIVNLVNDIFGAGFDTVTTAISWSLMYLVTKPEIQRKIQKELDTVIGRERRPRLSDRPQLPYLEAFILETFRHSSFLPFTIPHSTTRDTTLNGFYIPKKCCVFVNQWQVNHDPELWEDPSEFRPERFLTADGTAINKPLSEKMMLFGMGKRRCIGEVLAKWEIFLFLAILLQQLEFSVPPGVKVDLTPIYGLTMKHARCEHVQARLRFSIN
Answer each item with its documented inhibition at 10 µM.
One number for each entry, in %.

[[record]]
compound_structure_string = "O=C(NO)c1ccc(CN2c3ccccc3Sc3ccccc32)cc1"
readout = "inhibition at 10 µM"
unit_symbol = "%"
reported_value = 20


Pending compound:
[in] May I ask what inhibition at 10 µM has been recorded for `O=C(NO)c1ccc(CN2c3ccccc3Sc3cccnc32)cc1` ?
[out] 15.2

----------
Target: Protein deacetylase HDAC6 (Homo sapiens)
Sequence (Q9UBN7 whole entry): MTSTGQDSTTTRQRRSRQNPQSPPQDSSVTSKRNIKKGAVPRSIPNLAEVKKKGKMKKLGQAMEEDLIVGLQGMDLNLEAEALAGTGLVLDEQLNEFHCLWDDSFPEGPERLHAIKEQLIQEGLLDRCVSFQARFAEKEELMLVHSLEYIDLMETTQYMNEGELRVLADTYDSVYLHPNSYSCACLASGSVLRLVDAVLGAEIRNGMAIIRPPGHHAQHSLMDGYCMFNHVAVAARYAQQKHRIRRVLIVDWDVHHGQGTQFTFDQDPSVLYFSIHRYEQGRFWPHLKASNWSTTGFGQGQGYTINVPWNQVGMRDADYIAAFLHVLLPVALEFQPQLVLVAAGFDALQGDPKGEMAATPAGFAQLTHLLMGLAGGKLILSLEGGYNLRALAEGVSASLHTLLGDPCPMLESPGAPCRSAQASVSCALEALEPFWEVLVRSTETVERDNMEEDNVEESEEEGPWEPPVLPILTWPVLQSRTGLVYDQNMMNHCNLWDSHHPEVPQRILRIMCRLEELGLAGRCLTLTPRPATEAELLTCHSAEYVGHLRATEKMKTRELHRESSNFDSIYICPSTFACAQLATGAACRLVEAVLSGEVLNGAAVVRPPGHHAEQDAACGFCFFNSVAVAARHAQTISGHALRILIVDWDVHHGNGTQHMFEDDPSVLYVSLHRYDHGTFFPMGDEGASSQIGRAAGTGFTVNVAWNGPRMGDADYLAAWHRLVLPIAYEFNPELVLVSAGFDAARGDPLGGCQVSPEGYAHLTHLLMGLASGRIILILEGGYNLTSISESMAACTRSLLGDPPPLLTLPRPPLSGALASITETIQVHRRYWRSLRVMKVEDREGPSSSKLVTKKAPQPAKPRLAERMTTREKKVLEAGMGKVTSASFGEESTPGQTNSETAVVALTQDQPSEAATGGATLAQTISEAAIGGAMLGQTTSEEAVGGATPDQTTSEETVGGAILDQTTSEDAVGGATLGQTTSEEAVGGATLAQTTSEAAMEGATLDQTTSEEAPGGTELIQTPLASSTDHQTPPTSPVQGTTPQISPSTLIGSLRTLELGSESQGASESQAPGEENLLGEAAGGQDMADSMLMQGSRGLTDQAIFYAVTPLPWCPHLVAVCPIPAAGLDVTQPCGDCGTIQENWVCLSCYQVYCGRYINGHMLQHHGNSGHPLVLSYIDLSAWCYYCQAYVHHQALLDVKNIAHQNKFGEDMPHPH
Answer each item with its documented pIC50.
Numbers only, as −log10 of the molar value.

The cases that follow already have their pIC50 on record.
[[record]]
compound_structure_string = "O=C(NO)c1ccc(CN2c3ccncc3Sc3ncccc32)cc1"
readout = "pIC50"
reported_value = 7.92

[[record]]
compound_structure_string = "Cc1nc2c(s1)Sc1ccccc1N2Cc1ccc(C(=O)NO)cc1"
readout = "pIC50"
reported_value = 7.43

[[record]]
compound_structure_string = "O=C(NO)c1ccc(CN2c3ccccc3Sc3ccnnc32)cc1"
readout = "pIC50"
reported_value = 7.96

[[record]]
compound_structure_string = "CN1CCC2=C(C1)N(Cc1ccc(C(=O)NO)cc1)c1ccccc1S2"
readout = "pIC50"
reported_value = 7.49

[[record]]
compound_structure_string = "O=C(NO)c1ccc(CN2c3ccccc3Sc3ccc(Cl)cc32)cc1"
readout = "pIC50"
reported_value = 7.92

[[record]]
compound_structure_string = "O=C(NO)c1ccc(CN2c3ccncc3Sc3ccncc32)cc1"
readout = "pIC50"
reported_value = 8.05

[[record]]
compound_structure_string = "O=C(NO)c1ccc(CN2c3cccnc3Sc3cccnc32)cc1"
readout = "pIC50"
reported_value = 7.85

[[record]]
compound_structure_string = "O=C(NO)c1ccc(CN2c3ccccc3Sc3ccc(C(F)(F)F)cc32)cc1"
readout = "pIC50"
reported_value = 7.60

[[record]]
compound_structure_string = "CCSc1ccc2c(c1)N(Cc1ccc(C(=O)NO)cc1)c1ccccc1S2"
readout = "pIC50"
reported_value = 7.51

[[record]]
compound_structure_string = "O=C(NO)c1ccc(CN2c3ccccc3Sc3cccc(Cl)c32)cc1"
readout = "pIC50"
reported_value = 7.80


Pending compound:
[in] Please state recorded pIC50 (tested on Protein deacetylase HDAC6 (Homo sapiens)) of `COc1ccc2c(c1)N(Cc1ccc(C(=O)NO)cc1)c1ccccc1S2`
[out] 8.00

----------
Quick record: IC50, Histone deacetylase 1 (Homo sapiens).
One number for each entry, in µM.

[[record]]
compound_structure_string = "O=C(CCCCCCC(=O)Nc1ccc([C@H]2O[C@@H](CSc3nc(-c4ccccc4)c(-c4ccccc4)o3)C[C@@H](c3ccc(CO)cc3)O2)cc1)NO"
reported_value = 1.01

[[record]]
compound_structure_string = "O=C(NO)c1ccc(CN2c3ccncc3Sc3ncccc32)cc1"
reported_value = 3.34

[[record]]
compound_structure_string = "O=C(NO)c1ccc(CN2c3ccccc3S(=O)(=O)c3ccccc32)cc1"
reported_value = 3.99


Quick batch: IC50 for everything below.
1. CN1CCC2=C(C1)N(Cc1ccc(C(=O)NO)cc1)c1ccccc1S2
2. O=C(NO)c1ccc(CN2c3ccccc3Sc3ccc(Cl)cc32)cc1
3. O=C(NO)c1ccc(CN2c3ccccc3Sc3ccccc32)cc1
4. COc1ccc2c(c1)N(Cc1ccc(C(=O)NO)cc1)c1ccccc1S2
5. O=C(NO)c1ccc(CN2c3ccccc3Sc3ccc(C(F)(F)F)cc32)cc1
6. O=C(NO)c1ccc(CN2c3ccccc3Sc3cccc(Cl)c32)cc1

[out]
0.98
2.95
5.08
2.07
7.49
5.76

Quick batch: IC50 for everything below.
1. CCSc1ccc2c(c1)N(Cc1ccc(C(=O)NO)cc1)c1ccccc1S2
2. O=C(NO)c1ccc(CN2c3ccccc3Sc3cccnc32)cc1

[out]
1: 7.2; 2: 2.69

----------
Target: Histone deacetylase 8 (Homo sapiens, UniProt Q9BY41)
Sequence (Q9BY41 whole entry): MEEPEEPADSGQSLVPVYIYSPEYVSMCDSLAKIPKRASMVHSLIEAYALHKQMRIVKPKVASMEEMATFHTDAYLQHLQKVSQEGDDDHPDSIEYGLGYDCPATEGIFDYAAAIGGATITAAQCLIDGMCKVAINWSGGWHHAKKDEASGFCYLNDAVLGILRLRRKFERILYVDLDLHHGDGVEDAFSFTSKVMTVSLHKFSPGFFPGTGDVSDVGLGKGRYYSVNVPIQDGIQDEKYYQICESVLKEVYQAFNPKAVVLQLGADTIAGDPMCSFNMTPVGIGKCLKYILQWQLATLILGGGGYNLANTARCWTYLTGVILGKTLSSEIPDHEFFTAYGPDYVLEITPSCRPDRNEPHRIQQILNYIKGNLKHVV
readout: pIC50
Give bare numbers, as −log10 of the molar value.

The cases that follow already have their pIC50 on record.
[[record]]
compound_structure_string = "O=C(NO)c1ccc(CN2c3ccccc3Sc3ccccc32)cc1"
reported_value = 5.83

[[record]]
compound_structure_string = "O=C(NO)c1ccc(CN2c3ccncc3Sc3ncccc32)cc1"
reported_value = 5.70


Pending compound:
[in] May I ask what pIC50 has been recorded for `O=C(NO)c1ccc(CN2c3ccccc3Sc3cccnc32)cc1` ?
[out] 5.51

----------
assay: Stability in human liver microsomes assessed as compound remaining at 2 uM after 40 mins by LC-MS/MS analysis; assay type: ADME, Microsome; settings: read-out: Stability
readout: remaining at 40 min, 2 µM (%)
Numbers only, in %.

[in] May I ask what remaining at 40 min, 2 µM has been recorded for `O=C(NO)c1ccc(CN2c3ccccc3Sc3ccccc32)cc1` ?
[out] 77

----------
target: CYP2C19 (Homo sapiens); assay: Inhibition of human CYP2C19 in human liver microsomes at 10 uM relative to control; assay type: ADME
Sequence (P33261 whole entry): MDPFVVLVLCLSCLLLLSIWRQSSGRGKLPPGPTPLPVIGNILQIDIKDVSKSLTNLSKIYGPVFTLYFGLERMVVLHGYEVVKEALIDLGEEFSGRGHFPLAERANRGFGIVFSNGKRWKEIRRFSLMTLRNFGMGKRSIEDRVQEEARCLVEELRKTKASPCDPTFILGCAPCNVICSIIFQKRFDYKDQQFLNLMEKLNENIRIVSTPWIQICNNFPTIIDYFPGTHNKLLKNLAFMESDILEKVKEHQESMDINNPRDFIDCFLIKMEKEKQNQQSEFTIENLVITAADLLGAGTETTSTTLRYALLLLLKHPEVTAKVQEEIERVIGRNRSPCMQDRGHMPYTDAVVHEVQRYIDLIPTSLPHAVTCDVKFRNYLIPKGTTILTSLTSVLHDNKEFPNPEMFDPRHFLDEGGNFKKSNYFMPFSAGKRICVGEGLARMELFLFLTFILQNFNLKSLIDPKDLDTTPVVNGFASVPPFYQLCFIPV
readout: inhibition at 10 µM (%)
One number for each entry, in %.

[[record]]
compound_structure_string = "O=C(NO)c1ccc(CN2c3ccccc3Sc3cccnc32)cc1"
test_target = "CYP2C19 (Homo sapiens)"
unit_symbol = "%"
reported_value = 27.7


[in] Please state recorded inhibition at 10 µM (tested on CYP2C19 (Homo sapiens)) of `O=C(NO)c1ccc(CN2c3ccccc3Sc3ccccc32)cc1`
[out] 36.4

----------
target: UniProt P08684; test: Inhibition of human CYP3A4 in human liver microsomes at 10 uM relative to control; assay type: ADME
Sequence (P08684 whole entry): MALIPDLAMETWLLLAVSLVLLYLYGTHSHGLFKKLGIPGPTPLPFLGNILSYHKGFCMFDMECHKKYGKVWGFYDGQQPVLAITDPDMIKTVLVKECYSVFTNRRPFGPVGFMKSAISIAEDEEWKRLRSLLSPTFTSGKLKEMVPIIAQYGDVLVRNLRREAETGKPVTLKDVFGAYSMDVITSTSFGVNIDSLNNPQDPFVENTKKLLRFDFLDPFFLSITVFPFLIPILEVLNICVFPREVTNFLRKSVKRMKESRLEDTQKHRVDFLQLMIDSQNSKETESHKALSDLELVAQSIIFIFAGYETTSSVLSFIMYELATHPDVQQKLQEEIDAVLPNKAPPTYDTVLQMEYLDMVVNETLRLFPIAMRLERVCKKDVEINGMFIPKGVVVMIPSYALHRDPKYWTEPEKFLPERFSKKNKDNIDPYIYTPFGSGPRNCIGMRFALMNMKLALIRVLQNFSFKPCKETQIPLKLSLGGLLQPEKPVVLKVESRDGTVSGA
readout: inhibition at 10 µM
Could you write the number and then its unit?

[in] Please state recorded inhibition at 10 µM (tested on UniProt P08684) of `O=C(NO)c1ccc(CN2c3ccccc3Sc3ccccc32)cc1`
[out] 24.3%

Ref: ChEMBL document CHEMBL4368915
